- System: SF-295
- ASSAY_REMARKS: NCI 60 cell-line test
- Type: cell-based, human
- CONDITION_LABEL: SF-295 (CNS Cancer); read-out: G150
ENDPOINT_LABEL: IC50 (µM)

- COMPOUND: "CC1(C)C2CC[C@@]1(CS(=O)(=O)N(C1CCCCC1)C1CCCCC1)C(O)C2 (stereo partly shown)"
  RECORDED_RESULT: 22.6

----------
- Test system: IGROV1
- ASSAY_REMARKS: NCI 60 cell-line test
- Format: cell-based, human
- CONDITION_LABEL: IGROV1 (Ovarian Cancer); read-out: LC50 (the source's name)
ENDPOINT_LABEL: CC50

- COMPOUND: "CC1(C)C2CC[C@@]1(CS(=O)(=O)N(C1CCCCC1)C1CCCCC1)C(O)C2 (stereo partly shown)"
  RECORDED_RESULT: "> 100 µM"

----------
- System: HL-60 (TB)
- ASSAY_REMARKS: NCI 60 cell-line test
- Format: cell-based, human
- CONDITION_LABEL: HL-60 (TB) (Leukemia); read-out: LC50 (the source's name)

- COMPOUND: "CC1(C)C2CC[C@@]1(CS(=O)(=O)N(C1CCCCC1)C1CCCCC1)C(O)C2 (stereo partly shown)"
  CC50: "> 100 µM"

----------
- Test system: A549/ATCC
- ASSAY_REMARKS: NCI 60 cell-line test
- Type: cell-based, human
- CONDITION_LABEL: A549/ATCC (Non-Small Cell Lung Cancer); read-out: G150
pIC50: −log10 of the molar value.
ENDPOINT_LABEL: pIC50

- COMPOUND: "CC1(C)C2CC[C@@]1(CS(=O)(=O)N(C1CCCCC1)C1CCCCC1)C(O)C2 (stereo partly shown)"
  SYSTEM_UNDER_TEST: "A549/ATCC"
  RECORDED_RESULT: 4.55

----------
- System: SN12C
- ASSAY_REMARKS: NCI 60 cell-line test
- Type: cell-based, human
- CONDITION_LABEL: SN12C (Renal Cancer); read-out: G150
pIC50: −log10 of the molar value.
ENDPOINT_LABEL: pIC50

- MOLECULE: "CC1(C)C2CC[C@@]1(CS(=O)(=O)N(C1CCCCC1)C1CCCCC1)C(O)C2 (stereo partly shown)"
  RECORDED_RESULT: 4.48

----------
- Test system: MDA-N
- ASSAY_REMARKS: NCI 60 cell-line test
- Type: cell-based, human
- CONDITION_LABEL: MDA-N (Breast Cancer); read-out: LC50 (the source's name)
ENDPOINT_LABEL: CC50

- COMPOUND: "CC1(C)C2CC[C@@]1(CS(=O)(=O)N(C1CCCCC1)C1CCCCC1)C(O)C2 (stereo partly shown) [MT103]"
  ENDPOINT_LABEL: "CC50"
  RECORDED_RESULT: "> 100 µM"

----------
- Test system: OVCAR-5
- ASSAY_REMARKS: NCI 60 cell-line test
- Format: cell-based, human
- CONDITION_LABEL: OVCAR-5 (Ovarian Cancer); read-out: G150
pIC50: −log10 of the molar value.
ENDPOINT_LABEL: pIC50

- COMPOUND: "CC1(C)C2CC[C@@]1(CS(=O)(=O)N(C1CCCCC1)C1CCCCC1)C(O)C2 (stereo partly shown) [MT103]"
  RECORDED_RESULT: 4.63

----------
- System: MDA-MB-231/ATCC
- ASSAY_REMARKS: NCI 60 cell-line test
- Format: cell-based, human
- CONDITION_LABEL: MDA-MB-231/ATCC (Breast Cancer); read-out: LC50 (the source's name)

- COMPOUND: "CC1(C)C2CC[C@@]1(CS(=O)(=O)N(C1CCCCC1)C1CCCCC1)C(O)C2 (stereo partly shown) [MT103]"
  CC50: "> 100 µM"

----------
- System: U251
- ASSAY_REMARKS: NCI 60 cell-line test
- Type: cell-based, human
- CONDITION_LABEL: U251 (CNS Cancer); read-out: G150
- Method: Methodology: The NCI conducted a test of the MT103 drug against 60 human cell lines, with a minimum of five concentrations of MT103 at 10-fold dilutions. […] Following drug addition, the plates were incubated for an additional 48 h at 37° C., 5% CO2, 95% air, and 100% relative humidity. […] Bound stain was subsequently solubilized with 10 mM trizma base, and the absorbance was read on an automated plate reader at a wavelength of 515 nm. […] Percentage growth inhibition was calculated as: […]
pIC50: −log10 of the molar value.

- MOLECULE: "CC1(C)C2CC[C@@]1(CS(=O)(=O)N(C1CCCCC1)C1CCCCC1)C(O)C2 (stereo partly shown)"
  pIC50: 4.54

----------
- Tested on: DU-145
- ASSAY_REMARKS: NCI 60 cell-line test
- Type: cell-based, human
- CONDITION_LABEL: DU-145 (Prostate Cancer); read-out: G150

- COMPOUND: "CC1(C)C2CC[C@@]1(CS(=O)(=O)N(C1CCCCC1)C1CCCCC1)C(O)C2 (stereo partly shown)"
  IC50 (µM): 30.5

----------
- System: HCT-116
- ASSAY_REMARKS: NCI 60 cell-line test
- Type: cell-based, human
- CONDITION_LABEL: HCT-116 (Colon Cancer); read-out: G150
pIC50: −log10 of the molar value.

- MOLECULE: "CC1(C)C2CC[C@@]1(CS(=O)(=O)N(C1CCCCC1)C1CCCCC1)C(O)C2 (stereo partly shown)"
  pIC50: 4.36

----------
- System: DU-145
- ASSAY_REMARKS: NCI 60 cell-line test
- Assay type: cell-based, human
- CONDITION_LABEL: DU-145 (Prostate Cancer); read-out: LC50 (the source's name)
ENDPOINT_LABEL: CC50

- MOLECULE: "CC1(C)C2CC[C@@]1(CS(=O)(=O)N(C1CCCCC1)C1CCCCC1)C(O)C2 (stereo partly shown)"
  ENDPOINT_LABEL: "CC50"
  RECORDED_RESULT: "> 100 µM"

----------
- Test system: LOX IMVI
- ASSAY_REMARKS: NCI 60 cell-line test
- Assay type: cell-based, human
- CONDITION_LABEL: LOX IMVI (Melanoma); read-out: G150
ENDPOINT_LABEL: IC50

- COMPOUND: "CC1(C)C2CC[C@@]1(CS(=O)(=O)N(C1CCCCC1)C1CCCCC1)C(O)C2 (stereo partly shown) [MT103]"
  RECORDED_RESULT: "19 µM"

----------
- Tested on: SR
- ASSAY_REMARKS: NCI 60 cell-line test
- Format: cell-based, human
- CONDITION_LABEL: SR (Leukemia); read-out: LC50 (the source's name)

- MOLECULE: "CC1(C)C2CC[C@@]1(CS(=O)(=O)N(C1CCCCC1)C1CCCCC1)C(O)C2 (stereo partly shown)"
  CC50: "> 100 µM"

----------
- Test system: OVCAR-5
- ASSAY_REMARKS: NCI 60 cell-line test
- Type: cell-based, human
- CONDITION_LABEL: OVCAR-5 (Ovarian Cancer); read-out: LC50 (the source's name)
ENDPOINT_LABEL: CC50

- COMPOUND: "CC1(C)C2CC[C@@]1(CS(=O)(=O)N(C1CCCCC1)C1CCCCC1)C(O)C2 (stereo partly shown)"
  SYSTEM_UNDER_TEST: "OVCAR-5"
  ENDPOINT_LABEL: "CC50"
  RECORDED_RESULT: "> 100 µM"

----------
- System: SF-295
- ASSAY_REMARKS: NCI 60 cell-line test
- Type: cell-based, human
- CONDITION_LABEL: SF-295 (CNS Cancer); read-out: LC50 (the source's name)
ENDPOINT_LABEL: CC50

- MOLECULE: "CC1(C)C2CC[C@@]1(CS(=O)(=O)N(C1CCCCC1)C1CCCCC1)C(O)C2 (stereo partly shown) [MT103]"
  SYSTEM_UNDER_TEST: "SF-295"
  RECORDED_RESULT: "> 100 µM"

----------
- System: OVCAR-4
- ASSAY_REMARKS: NCI 60 cell-line test
- Assay type: cell-based, human
- CONDITION_LABEL: OVCAR-4 (Ovarian Cancer); read-out: LC50 (the source's name)
ENDPOINT_LABEL: CC50

- COMPOUND: "CC1(C)C2CC[C@@]1(CS(=O)(=O)N(C1CCCCC1)C1CCCCC1)C(O)C2 (stereo partly shown)"
  SYSTEM_UNDER_TEST: "OVCAR-4"
  RECORDED_RESULT: "> 100 µM"

----------
- Tested on: SW-620
- ASSAY_REMARKS: NCI 60 cell-line test
- Format: cell-based, human
- CONDITION_LABEL: SW-620 (Colon Cancer); read-out: LC50 (the source's name)
ENDPOINT_LABEL: CC50

- COMPOUND: "CC1(C)C2CC[C@@]1(CS(=O)(=O)N(C1CCCCC1)C1CCCCC1)C(O)C2 (stereo partly shown)"
  RECORDED_RESULT: "> 100 µM"
